Sourced from patent US8338465B2

Target: dihydrolipoamide acyltransferase (DlaT) (Mycobacterium tuberculosis)
Test: DlaT inhibition (Dlat IC50); DTNB peroxidase assay with Lpd, DlaT and AhpD
Assay type: biochemical
Settings: Dlat IC50 category
pIC50: −log10 of the molar value.
quantity kind: pIC50

{"molecule": "CC(C)(C)c1ccc(-c2ccc(C=C3SC(=S)N(CC(=O)O)C3=O)o2)cc1", "target of assay": "dihydrolipoamide acyltransferase (DlaT) (Mycobacterium tuberculosis)", "val": "> 5.00"}
{"molecule": "CSc1ccc(-c2ccc(C=C3SC(=S)N(C4CCC(C(=O)O)CC4)C3=O)o2)cc1 (centres unmarked)", "target of assay": "dihydrolipoamide acyltransferase (DlaT) (Mycobacterium tuberculosis)", "val": "> 5.00"}
{"molecule": "Cc1cc(F)ccc1-c1ccc(C=C2SC(=S)N(Nc3ccccc3C(=O)O)C2=O)o1", "target of assay": "dihydrolipoamide acyltransferase (DlaT) (Mycobacterium tuberculosis)", "val": "> 5.00"}
{"molecule": "Cc1ccccc1-c1cccc(C=C2SC(=S)N(C3CCCC(C(=O)O)C3)C2=O)c1 (centres unmarked)", "target of assay": "dihydrolipoamide acyltransferase (DlaT) (Mycobacterium tuberculosis)", "val": "4.40 to 4.96"}
{"molecule": "Cc1ccccc1-c1ccc(C=C2SC(=S)N(C3CCC(C(=O)O)CC3)C2=O)o1 (centres unmarked)", "target of assay": "dihydrolipoamide acyltransferase (DlaT) (Mycobacterium tuberculosis)", "val": "4.40 to 4.96"}
{"molecule": "COc1ccc(-c2ccc(C=C3SC(=S)N(Nc4ccccc4C(=O)O)C3=O)o2)c(OC)c1", "target of assay": "dihydrolipoamide acyltransferase (DlaT) (Mycobacterium tuberculosis)", "val": "> 5.00"}
{"molecule": "O=C(O)C(c1ccccc1)N1C(=O)C(=Cc2ccc(-c3ccc(Cc4ccccc4)cc3)o2)SC1=S (centres unmarked)", "target of assay": "dihydrolipoamide acyltransferase (DlaT) (Mycobacterium tuberculosis)", "val": "> 5.00"}
{"molecule": "O=C(O)c1ccccc1NN1C(=O)C(=Cc2ccc(-c3ccccc3F)s2)SC1=S", "target of assay": "dihydrolipoamide acyltransferase (DlaT) (Mycobacterium tuberculosis)", "val": "> 5.00"}

###

Molecular target: dihydrolipoamide acyltransferase (DlaT) (Mycobacterium tuberculosis, UniProt P9WIS7)
Sequence (P9WIS7 whole entry): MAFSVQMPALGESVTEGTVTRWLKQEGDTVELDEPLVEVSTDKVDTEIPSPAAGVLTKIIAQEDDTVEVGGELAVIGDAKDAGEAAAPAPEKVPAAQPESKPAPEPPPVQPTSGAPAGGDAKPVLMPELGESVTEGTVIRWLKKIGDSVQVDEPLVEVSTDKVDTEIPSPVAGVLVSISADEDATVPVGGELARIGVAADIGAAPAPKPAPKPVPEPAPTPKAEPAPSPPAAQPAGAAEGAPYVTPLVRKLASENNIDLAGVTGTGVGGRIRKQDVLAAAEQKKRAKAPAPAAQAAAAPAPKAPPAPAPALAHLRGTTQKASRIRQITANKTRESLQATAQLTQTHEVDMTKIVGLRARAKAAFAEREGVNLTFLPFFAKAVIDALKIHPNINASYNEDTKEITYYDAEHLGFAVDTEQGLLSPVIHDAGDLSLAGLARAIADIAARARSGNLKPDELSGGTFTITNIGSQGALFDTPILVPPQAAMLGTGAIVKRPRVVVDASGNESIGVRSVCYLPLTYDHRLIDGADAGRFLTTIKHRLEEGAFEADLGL
Test: DlaT inhibition (Dlat IC50); DTNB peroxidase assay with Lpd, DlaT and AhpD
Type: biochemical
Details: Dlat IC50 category
pIC50: −log10 of the molar value.

{"compound": "O=C(O)C1CCCC(N2C(=O)C(=Cc3ccccc3OCc3ccccc3Cl)SC2=S)C1 (centres unmarked)", "pIC50": "4.40 to 4.96"}
{"compound": "CC(C)C(C(=O)O)N1C(=O)C(=Cc2ccc(-c3ccc(Cl)cc3Cl)o2)SC1=S (centres unmarked)", "pIC50": "> 5.00"}
{"compound": "COc1ccc(-c2ccc(C=C3SC(=S)N(C4CCCC(C(=O)O)C4)C3=O)o2)c(C)c1 (centres unmarked)", "pIC50": "4.40 to 4.96"}
{"compound": "O=C(O)C(c1ccccc1)N1C(=O)C(=Cc2ccc(-c3ccc(-c4ccccc4)cc3)o2)SC1=S (centres unmarked)", "pIC50": "> 5.00"}
{"compound": "O=C(O)c1ccccc1NN1C(=O)C(=Cc2ccc(-c3ccccc3O)o2)SC1=S", "pIC50": "> 5.00"}
{"compound": "O=C(O)C(c1ccccc1)N1C(=O)C(=Cc2cccc(-c3ccccc3Cl)n2)SC1=S (centres unmarked)", "pIC50": "4.40 to 4.96"}
{"compound": "O=C(O)C(c1ccccc1)N1C(=O)C(=Cc2ccc(-c3cc(Cl)ccc3Cl)o2)SC1=S (centres unmarked)", "pIC50": "> 5.00"}
{"compound": "Cc1ccc(-c2ccc(C=C3SC(=S)N(C4CCCC(C(=O)O)C4)C3=O)cc2)cc1 (centres unmarked)", "pIC50": "> 5.00"}

###

Recorded measurements of IC50, one per entry
Target: dihydrolipoamide acyltransferase (DlaT) (Mycobacterium tuberculosis)
Experiment: DlaT inhibition (Dlat IC50); DTNB peroxidase assay with Lpd, DlaT and AhpD
Type: biochemical
Conditions: Dlat IC50 category, Table 20, Prodrugs (Compounds T1 to T8)

{"molecule": "O=C(OCCCCOP(=O)(O)O)c1cccc(N2C(=O)C(=Cc3ccc(-c4ccccc4Cl)o3)SC2=S)c1 [Compound T3]", "IC50": "41 to 80 µM"}
{"molecule": "O=C(OCCN(CCO)CCO)c1cccc(N2C(=O)C(=Cc3ccc(-c4ccccc4Cl)o3)SC2=S)c1 [Compound T8]", "IC50": "41 to 80 µM"}
{"molecule": "O=C(OCCCO)c1cccc(N2C(=O)C(=Cc3ccc(-c4ccccc4Cl)o3)SC2=S)c1 [Compound T2]", "IC50": "41 to 80 µM"}
{"molecule": "O=C(NC(CO)(CO)CO)c1cccc(N2C(=O)C(=Cc3ccc(-c4ccccc4Cl)o3)SC2=S)c1 [Compound T6]", "IC50": "11 to 40 µM"}
{"molecule": "O=C(OCC(CO)CO)c1cccc(N2C(=O)C(=Cc3ccc(-c4ccccc4Cl)o3)SC2=S)c1 [Compound T4]", "IC50": "11 to 40 µM"}
{"molecule": "O=C(NC(CO)CO)c1cccc(N2C(=O)C(=Cc3ccc(-c4ccccc4Cl)o3)SC2=S)c1 [Compound T7]", "IC50": "11 to 40 µM"}
{"molecule": "O=C(OCCCCO)c1cccc(N2C(=O)C(=Cc3ccc(-c4ccccc4Cl)o3)SC2=S)c1 [Compound T1]", "IC50": "41 to 80 µM"}

###

Recorded measurements of pIC50, one per entry
Molecular target: dihydrolipoamide acyltransferase (DlaT) (Mycobacterium tuberculosis)
Assay: DlaT inhibition (Dlat IC50); DTNB peroxidase assay with Lpd, DlaT and AhpD
Format: biochemical
Conditions: Dlat IC50 category
pIC50: −log10 of the molar value.
quantity kind: pIC50

{"compound": "Cc1ccc(-c2ccc(C=C3SC(=S)N(Nc4ccccc4C(=O)O)C3=O)o2)cc1", "quantity kind": "pIC50", "val": "> 5.00"}
{"compound": "O=C(O)C(c1ccccc1)N1C(=O)C(=Cc2ccc(-c3cccc(C(F)(F)F)c3)o2)SC1=S (stereo not shown)", "quantity kind": "pIC50", "val": "> 5.00"}
{"compound": "O=C(O)c1ccc(NN2C(=O)C(=Cc3ccc(-c4cccc(C(F)(F)F)c4)o3)SC2=S)cc1", "quantity kind": "pIC50", "val": "> 5.00"}
{"compound": "O=C(O)c1ccccc1NN1C(=O)C(=Cc2ccc(-c3ccccc3Oc3ccccc3)o2)SC1=S", "quantity kind": "pIC50", "val": "> 5.00"}
{"compound": "CC(C)Cc1ccc(-c2ccc(C=C3SC(=S)N(CC(=O)O)C3=O)o2)cc1", "quantity kind": "pIC50", "val": "> 5.00"}
{"compound": "O=C(O)C(Cc1ccc(O)c(O)c1)N1C(=O)C(=Cc2ccc(-c3cccc(C(F)(F)F)c3)o2)SC1=S (stereo not shown)", "quantity kind": "pIC50", "val": "> 5.00"}
{"compound": "O=C(O)CN1C(=O)C(=Cc2ccc(-c3cccc(Cl)c3Cl)o2)SC1=S", "quantity kind": "pIC50", "val": "> 5.00"}
{"compound": "Cc1ccccc1-c1cccc(C=C2SC(=S)N(Nc3ccccc3C(=O)O)C2=O)n1", "quantity kind": "pIC50", "val": "4.40 to 4.96"}
{"compound": "O=C(O)C1CCCC(N2C(=O)C(=Cc3ccc(-c4cccc(-c5ccccc5)c4)o3)SC2=S)C1 (stereo not shown)", "quantity kind": "pIC50", "val": "> 5.00"}
{"compound": "O=C(O)CCN1C(=O)C(=Cc2ccc(-c3ccc(O)cc3)o2)SC1=S", "quantity kind": "pIC50", "val": "4.10 to 4.39"}
{"compound": "O=C(O)CCCN1C(=O)C(=Cc2ccc(-c3cccc(C(F)(F)F)c3)o2)SC1=S", "quantity kind": "pIC50", "val": "> 5.00"}
{"compound": "Cc1ccc(-c2ccc(C=C3SC(=S)N(Nc4ccccc4C(=O)O)C3=O)o2)c(F)c1", "quantity kind": "pIC50", "val": "> 5.00"}
{"compound": "O=C(O)C1CCC(N2C(=O)C(=Cc3ccc(-c4ccccc4F)s3)SC2=S)CC1 (stereo not shown)", "quantity kind": "pIC50", "val": "4.40 to 4.96"}
{"compound": "C=C(c1ccccc1)c1ccc(-c2ccc(C=C3SC(=S)N(CC(=O)O)C3=O)o2)cc1", "quantity kind": "pIC50", "val": "> 5.00"}
{"compound": "O=C(O)c1ccccc1NN1C(=O)/C(=C\\c2ccc(-c3ccc(N4CCOCC4)cc3)o2)SC1=S (single isomer, unassigned)", "quantity kind": "pIC50", "val": "4.40 to 4.96"}
{"compound": "CSc1cccc(-c2ccc(C=C3SC(=S)N(Nc4ccccc4C(=O)O)C3=O)o2)c1", "quantity kind": "pIC50", "val": "> 5.00"}
{"compound": "O=C(O)CCCCCN1C(=O)C(=Cc2cc(-c3cccc(C(F)(F)F)c3)co2)SC1=S", "quantity kind": "pIC50", "val": "4.40 to 4.96"}
{"compound": "O=C(O)c1cccc(NN2C(=O)C(=Cc3ccc(-c4ccccc4Cl)o3)SC2=S)c1", "quantity kind": "pIC50", "val": "> 5.00"}
{"compound": "CC(C)Oc1ccc(-c2ccc(C=C3SC(=S)N(C4CCCC(C(=O)O)C4)C3=O)o2)cc1 (stereo not shown)", "quantity kind": "pIC50", "val": "> 5.00"}
{"compound": "O=C(O)c1ccccc1NN1C(=O)C(=Cc2ccc(-c3ccc(F)cc3)o2)SC1=S", "quantity kind": "pIC50", "val": "> 5.00"}
{"compound": "Cc1cc(F)ccc1-c1ccc(C=C2SC(=S)N(C3CCCC(C(=O)O)C3)C2=O)o1 (stereo not shown)", "quantity kind": "pIC50", "val": "> 5.00"}
{"compound": "O=C(O)c1ccccc1NN1C(=O)C(=Cc2ccc(-c3ccccc3F)o2)SC1=S", "quantity kind": "pIC50", "val": "> 5.00"}
{"compound": "O=C(O)C(Cc1ccccc1)N1C(=O)C(=Cc2ccc(-c3ccc(Cl)cc3)o2)SC1=S (stereo not shown)", "quantity kind": "pIC50", "val": "> 5.00"}
{"compound": "O=C(O)C1CCCC(N2C(=O)C(=Cc3ccc(-c4ccccc4F)o3)SC2=S)C1 (stereo not shown)", "quantity kind": "pIC50", "val": "> 5.00"}
{"compound": "CC(C)C(C(=O)O)N1C(=O)C(=Cc2ccc(-c3ccc(Cl)cc3[N+](=O)[O-])o2)SC1=S (stereo not shown)", "quantity kind": "pIC50", "val": "4.40 to 4.96"}
{"compound": "O=C(O)C(Cc1ccccc1)N1C(=O)C(=Cc2ccc(-c3c(Cl)cccc3Cl)o2)SC1=S (stereo not shown)", "quantity kind": "pIC50", "val": "> 5.00"}
{"compound": "O=C(O)C1CCCC(N2C(=O)C(=Cc3ccc(-c4ccc(C(F)(F)F)cc4)o3)SC2=S)C1 (stereo not shown)", "quantity kind": "pIC50", "val": "> 5.00"}
{"compound": "CC(C)C(C(=O)O)N1C(=O)C(=Cc2ccc(-c3cccc(Cl)c3)o2)SC1=S (stereo not shown)", "quantity kind": "pIC50", "val": "4.40 to 4.96"}
{"compound": "O=C(O)C(Cc1ccccc1)N1C(=O)C(=Cc2ccc(-c3ccccc3Cl)o2)SC1=S (stereo not shown)", "quantity kind": "pIC50", "val": "> 5.00"}
{"compound": "CN(C)c1ccc(-c2ccc(C=C3SC(=S)N(CC(=O)O)C3=O)o2)cc1 [Compound B86]", "quantity kind": "pIC50", "val": "4.10 to 4.39"}
{"compound": "O=C(O)C1CCCC(N2C(=O)C(=Cc3ccc(-c4ccccc4OCc4ccccc4)o3)SC2=S)C1 (stereo not shown)", "quantity kind": "pIC50", "val": "> 5.00"}
